Reported pIC50 values are given for each entry in this list.
Biological target: Fibroblast growth factor receptor 1 (Homo sapiens, UniProt P11362)
Sequence (P11362 whole entry): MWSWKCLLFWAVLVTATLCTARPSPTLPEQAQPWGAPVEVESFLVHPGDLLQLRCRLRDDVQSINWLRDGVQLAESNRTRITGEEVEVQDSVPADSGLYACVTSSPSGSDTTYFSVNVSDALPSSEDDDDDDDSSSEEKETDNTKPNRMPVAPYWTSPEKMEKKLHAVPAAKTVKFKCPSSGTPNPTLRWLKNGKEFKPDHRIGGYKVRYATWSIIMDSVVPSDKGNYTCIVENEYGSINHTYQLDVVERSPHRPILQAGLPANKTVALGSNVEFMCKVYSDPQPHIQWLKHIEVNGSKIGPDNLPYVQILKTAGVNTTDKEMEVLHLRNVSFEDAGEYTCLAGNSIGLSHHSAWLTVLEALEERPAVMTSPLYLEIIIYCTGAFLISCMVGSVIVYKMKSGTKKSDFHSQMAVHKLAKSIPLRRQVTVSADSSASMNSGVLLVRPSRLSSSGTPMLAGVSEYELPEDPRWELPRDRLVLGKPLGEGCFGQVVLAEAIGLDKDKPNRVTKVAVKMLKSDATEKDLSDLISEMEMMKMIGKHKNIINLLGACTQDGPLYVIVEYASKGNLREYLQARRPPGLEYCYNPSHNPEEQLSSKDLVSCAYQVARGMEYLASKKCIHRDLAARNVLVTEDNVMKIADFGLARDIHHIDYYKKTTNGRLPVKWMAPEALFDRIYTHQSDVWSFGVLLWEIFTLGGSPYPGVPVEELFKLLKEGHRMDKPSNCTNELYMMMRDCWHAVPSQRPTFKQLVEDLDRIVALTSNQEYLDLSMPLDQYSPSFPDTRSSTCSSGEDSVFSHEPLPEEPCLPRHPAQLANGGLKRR
Assay: Inhibition of His-tagged human FGFR1 expressed in Sf9 cells
pIC50: −log10 of the molar value.

cpd-smiles: Cn1ccc2ncnc(Oc3ccc(NC(=O)Nc4ccccn4)c(Cl)c3)c21
observed-measurement: < 5.00
--
cpd-smiles: Cn1ccc2ncnc(Oc3ccc(NC(=O)Nc4cccc(C(F)(F)F)c4)c(F)c3)c21
observed-measurement: < 5.00
--
cpd-smiles: Cn1ccc2ncnc(Oc3ccc(NC(=O)Nc4cccnc4)c(Cl)c3)c21
observed-measurement: < 5.00

Now look at this one.
// lookup pIC50 for `Cn1ccc2ncnc(Oc3ccc(NC(=O)Nc4ccncc4)c(Cl)c3)c21`
< 5.00

Entry source: ChEMBL document CHEMBL1250549
